# System: OVCAR-8 ovarian
# Experimental details: NCI tumour cell line growth inhibition, 48 h; in the data active = GI50 below about 0.43 µM; inactive = the rest
Outcomes: YES for active, NO for inactive

- COC(=O)c1c(C(=O)O)c(-c2ccccc2)c(-c2ccccc2)c(-c2ccccc2)c1-c1ccccc1: NO
- N.N.N.N.O=S([O-])[O-].[Co+3].[N-]=[N+]=[N-]: NO
- CCCCC[C@H]1C/C=C2/C(=O)C=C[C@@H]2C/C=C\CCCC(=O)O1: YES
- CC(C)=CC(=O)OC1C2C(C)=CC(=O)C(O)C2(C)C2C3(O)OCC24C(CC(=O)OC14)C(C)C3O (stereo not given): YES
- CCCC(=O)Nc1cc(/C=C/C(=O)N2C[C@@H]3C[C@]34C2=CC(=O)c2[nH]cc(C)c24)n(C)c1: YES

---

# System: A549 NSCLC
# Experimental details: NCI tumour cell line growth inhibition, 48 h
Where a SMILES comes first, the peptide text is derived from it. Bridges are numbered along the chain shown (N, C = ends).
Observed property: TGI

* Cc1cccc(NC(=S)Nc2cccc(Cl)c2)n1 | > 100 µM
* COc1cccc(C2C(C#N)=C(N)Oc3cc(OCCCCCC[P+](c4ccccc4)(c4ccccc4)c4ccccc4)ccc32)c1 (stereo not given) | 4.51 µM
* CSCSCC(CO)NC(=O)/C=C\c1c(C)[nH]c(=O)[nH]c1=O (stereo not given) | 375 µM
* CN1COCN=C1NC#N | > 100 µM
* COC(=O)C1CCC(=O)NCCCCC(NC(=O)C(N)CC(=O)O)C(=O)N1 (stereo not drawn) (H-Asp-Lys-Glu-OMe; lactam 2-3; configuration not given here) | > 100 µM
* CCOc1ccc2cc(-c3nn(CC4CCN(C)CC4)c4ncnc(N)c34)ccc2c1 | 40.2 µM
* O=C(O)CCN1C(=S)CSC1=S | > 100 µM
* COc1ccc(/C=C/C(=O)c2cc(CN(C)C)c(O)c(CN(C)C)c2)cc1 | > 100 µM
* COc1c(OC2OC(C)C(O)C(O)C2O)c(OC)c2oc(-c3ccc(O)cc3)cc(=O)c2c1O (stereo not given) | > 100 µM
* COc1ccc(-c2nc(-c3cnccn3)n(C/C=C/c3ccccc3)n2)cc1 | > 100 µM

---

# Test system: A498 renal
# Experimental details: NCI tumour cell line growth inhibition, 48 h
Parameter TGI: see the listing below.
Observed property: TGI

* O=C(CC1(O)CCCCC1)OC1CCCC1 | > 100 µM
* COc1ccccc1/C=C(\NC(=O)c1ccccc1)c1nc2ccccc2[nH]1 | > 100 µM
* NCCCNCCSP(=O)(O)O | > 75 µM
* Cc1nc(C(=O)OCc2ccccc2)cc(OCc2ccccc2)c1C | > 85.6 µM
* CCOC(=O)/C=C/c1ccc([N+](=O)[O-])o1 | 48.8 µM
* CN(CCOc1ccc(NS(C)(=O)=O)cc1)CCc1ccc(NS(C)(=O)=O)cc1 | > 100 µM

---

# Test system: HL-60(TB) leukemia
# Experimental details: NCI tumour cell line growth inhibition, 48 h
Observed property: TGI (µM)

• O=C(Nc1ccccc1)N1C(c2ccccc2)=N[C@@H](c2ccccc2)[C@@H]1c1ccccc1 = 46.5
• COc1ccc(C2=NNC(c3sc(Cl)nc3Cl)C2)cc1 (stereo not drawn) = 64.1
